B1: C2CD2L (parent)
chain: EPAGSLRELGVWRSLLRLRATRAG

Variants of: B1
Experiment: protein stability index of a GFP-peptide fusion (GPS, HEK-293T) (PSI 1-6); higher = more stable;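 note: lentivirally expressed fusions sorted by FACS into six bins by GFP to DsRed ratio, PSI derived from sequencing read proportions per bin multiplied by bin number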
Conditions: c terminus: a fixed tail appended
value-type: protein stability index
Answers are plain numbers.

Sample answers from the record:
   mutation_code               value_type  measurement
0            E8F  protein stability index          2.9
1           S14K  protein stability index         1.96
2            R7A  protein stability index         3.16
3           L18C  protein stability index         2.67
4           L18W  protein stability index         1.53

Below are some variants; for each one, tell me its protein stability index.
1. A3W
2. S14L
3. L9T

Output:
[1.97, 1.33, 2.92]

Below are some variants; for each one, tell me its protein stability index.
1. P2Y
2. S5Y

Output:
[2.04, 2.73]
